Biological target: slowly delayed rectifier potassium channel current (IKs) (Cavia porcellus, UniProt O70344)
Construct: the Guinea pig myocardial cells are separated with enzymolysis; endogenous in cells
Sequence (O70344 1-671): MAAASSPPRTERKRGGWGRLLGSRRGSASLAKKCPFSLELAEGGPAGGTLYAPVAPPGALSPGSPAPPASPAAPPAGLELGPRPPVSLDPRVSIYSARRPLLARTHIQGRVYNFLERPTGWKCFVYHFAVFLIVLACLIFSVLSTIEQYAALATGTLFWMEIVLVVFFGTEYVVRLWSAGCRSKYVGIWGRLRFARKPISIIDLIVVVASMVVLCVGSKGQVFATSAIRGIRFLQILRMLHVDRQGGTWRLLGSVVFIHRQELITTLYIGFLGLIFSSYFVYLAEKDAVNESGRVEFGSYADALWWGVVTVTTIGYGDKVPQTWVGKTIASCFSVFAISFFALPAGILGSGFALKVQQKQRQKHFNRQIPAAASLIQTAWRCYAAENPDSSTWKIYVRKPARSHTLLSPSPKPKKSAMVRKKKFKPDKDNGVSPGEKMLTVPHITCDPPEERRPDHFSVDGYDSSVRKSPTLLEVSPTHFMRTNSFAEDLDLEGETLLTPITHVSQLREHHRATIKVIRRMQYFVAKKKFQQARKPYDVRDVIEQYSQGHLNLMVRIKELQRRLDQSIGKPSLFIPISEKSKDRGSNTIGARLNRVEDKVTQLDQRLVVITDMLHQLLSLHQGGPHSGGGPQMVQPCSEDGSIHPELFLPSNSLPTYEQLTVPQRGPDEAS
Sequence (P41686 1-245 partner): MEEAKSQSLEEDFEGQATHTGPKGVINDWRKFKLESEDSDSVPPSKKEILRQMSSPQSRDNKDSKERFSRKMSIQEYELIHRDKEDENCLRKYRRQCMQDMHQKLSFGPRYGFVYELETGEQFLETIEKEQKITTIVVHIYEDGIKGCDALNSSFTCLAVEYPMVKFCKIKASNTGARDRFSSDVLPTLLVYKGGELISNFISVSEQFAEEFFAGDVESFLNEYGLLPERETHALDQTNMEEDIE
Assay: whole cell patch clamp on isolated Guinea pig myocardial cells, IKs
Settings: Guinea pig ventricular myocytes, current recorded 10 min after administration, 25-30° C.
Description: Experimental title: using vitro pachynsis myocardial cells of Guinea pig, the activity is determined by the whole cell membrane Patch clamp technology. experimental mechanism: the Guinea pig myocardial cells are separated with enzymolysis, and the rapid activation component and the slowly activation component of the delayed commutating current in the cardiac muscle cells are recorded by whole cell membrane Patch clamp. […]
pIC50: −log10 of the molar value.
Collected pIC50 values appear next to each entry.
Observed property: pIC50

> print(dat)
                              line.notation  observed.property  numeric.value
1  CN1CCN(CCCCN2C(=O)CN(/N=C3\CCOc4ccc(C(N)=O)cc43)C2=O)CC1.O=C(O)/C=C/C(=O)O              pIC50           6.48
2  CCCCOc1ccc2c(c1)/C(=N/N1CC(=O)N(CCCCN3CCCCC3)C1=O)CCO2              pIC50           5.99
3  Cc1ccc2c(c1)/C(=N/N1CC(=O)N(CCCCN3CCCCC3)C1=O)CCO2              pIC50           4.72
4  CN1CCN(CCCN2C(=O)CN(N=C3CCOc4ccc(Cl)cc43)C2=O)CC1              pIC50           8.24
5  O=C1CN(/N=C2\CCOc3ccc(Cl)cc32)C(=O)N1CCCCN1CCCCC1              pIC50           4.21
6  CCOc1ccc2c(c1)/C(=N/N1CC(=O)N(CCCCN3CCCCC3)C1=O)CCO2              pIC50           5.98
7  CCOc1ccc2c(c1)/C(=N/N1CC(=O)N(CCCN3CCN(C)CC3)C1=O)CCO2              pIC50           7.57
8  COc1ccc2c(c1)/C(=N/N1CC(=O)N(CCCCN3CCN(C)CC3)C1=O)CCO2.O=C(O)/C=C/C(=O)O              pIC50           6.19

These entries and their values trace back to patent US7772230B2.
